Reference source for all entries: patent US20250195513A1

Molecular target: IRAK4 (Homo sapiens, UniProt Q9NWZ3)
Construct: endogenous in cells; host or cells: Karpas299
Sequence (Q9NWZ3 whole entry): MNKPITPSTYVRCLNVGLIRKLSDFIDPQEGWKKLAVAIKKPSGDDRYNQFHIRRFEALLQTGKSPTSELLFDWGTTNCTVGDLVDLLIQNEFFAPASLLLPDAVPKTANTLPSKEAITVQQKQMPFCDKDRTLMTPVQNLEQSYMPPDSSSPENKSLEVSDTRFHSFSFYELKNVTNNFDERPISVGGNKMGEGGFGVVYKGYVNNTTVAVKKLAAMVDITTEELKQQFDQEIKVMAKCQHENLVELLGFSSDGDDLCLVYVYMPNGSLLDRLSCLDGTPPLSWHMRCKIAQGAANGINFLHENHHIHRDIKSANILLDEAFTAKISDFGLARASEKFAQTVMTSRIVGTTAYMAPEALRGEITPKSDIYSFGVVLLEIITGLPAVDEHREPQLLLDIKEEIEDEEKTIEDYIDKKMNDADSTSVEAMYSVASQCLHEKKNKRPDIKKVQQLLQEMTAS
Experiment: IRAK4 Degradation Assay (Karpas299, HTRF/TR-FRET)
Format: cell-based
Conditions: Karpas-299 cells, 24 h treatment; read-out: IRAK4 in Karpas-299 (24 h) DC50
propertyMeasured: DC50 (nM)
Field format: number, assumed nM, no unit text.

Solved cases below.
- CC(C)(O)c1cc2nn([C@H]3CC[C@H](N4CCN(CCCc5cc(F)c([C@H]6CCC(=O)NC6=O)c(F)c5)CC4)CC3)cc2cc1NC(=O)c1ccc2cc(C#N)cnn12: 1.1
- C[C@@H]1CN(CCc2cc(F)c([C@H]3CCC(=O)NC3=O)c(F)c2)CCN1[C@H]1CC[C@H](n2cc3cc(NC(=O)c4ccc5cc(C#N)cnn45)c(C(C)(C)O)cc3n2)CC1: 0.8
- CC(C)(O)c1cc2nn([C@H]3CC[C@H](N4CCN(CC5CN(c6cc(F)c([C@H]7CCC(=O)NC7=O)c(F)c6)C5)CC4)CC3)cc2cc1NC(=O)c1ccc2cc(C#N)cnn12: 0.6

Okay, now this molecule:
Request: Recall the recorded DC50 for Cc1cc(C2CCC(=O)NC2=O)c(F)cc1[C@H]1C[C@H](N2CCN([C@H]3CC[C@H](n4cc5cc(NC(=O)c6ccc7cc(C#N)cnn67)c(C(C)(C)O)cc5n4)CC3)CC2)C1 (some centres unmarked) with IRAK4 (Homo sapiens, UniProt Q9NWZ3) and state it.
Response: 1.4
